Origin of the recorded values: the supplement of paper PMC11451515

# System: NOMO1
# procedure_text: cell viability relative to DMSO control; higher = less cytotoxic
# particulars: HPLM + 10% dialyzed FBS; 48 h; 0.000781 µM
For each record, write down the corresponding cell viability.
Respond numerically; units are % and should not be typed.

### Prompt Tell us which cell viability value is on record for COc1c(C)c2c(c(O)c1C/C=C(\C)CCC(=O)O)C(=O)OC2
### Response 116

### Prompt Tell us which cell viability value is on record for Cc1ccnc2c1NC(=O)c1cccnc1N2C1CC1
### Response 102

### Prompt Tell us which cell viability value is on record for Cc1cccc(Nc2ccncc2[S+](=O)([O-])NC(=O)NC(C)C)c1
### Response 105

### Prompt Tell us which cell viability value is on record for CNCC[C@H](Oc1cccc2ccccc12)c1cccs1
### Response 117

### Prompt Tell us which cell viability value is on record for COC(=O)C\1=C(C)\N\C(=C(/C1C2=CC=CC3=NON=C23)C(=O)OC(C)C)C (stereo not given)
### Response 115
